Measured Ki, listed per entry for reference.
- targetUnderTest: STAT5A (Homo sapiens)
- Sequence (P42229 1-794): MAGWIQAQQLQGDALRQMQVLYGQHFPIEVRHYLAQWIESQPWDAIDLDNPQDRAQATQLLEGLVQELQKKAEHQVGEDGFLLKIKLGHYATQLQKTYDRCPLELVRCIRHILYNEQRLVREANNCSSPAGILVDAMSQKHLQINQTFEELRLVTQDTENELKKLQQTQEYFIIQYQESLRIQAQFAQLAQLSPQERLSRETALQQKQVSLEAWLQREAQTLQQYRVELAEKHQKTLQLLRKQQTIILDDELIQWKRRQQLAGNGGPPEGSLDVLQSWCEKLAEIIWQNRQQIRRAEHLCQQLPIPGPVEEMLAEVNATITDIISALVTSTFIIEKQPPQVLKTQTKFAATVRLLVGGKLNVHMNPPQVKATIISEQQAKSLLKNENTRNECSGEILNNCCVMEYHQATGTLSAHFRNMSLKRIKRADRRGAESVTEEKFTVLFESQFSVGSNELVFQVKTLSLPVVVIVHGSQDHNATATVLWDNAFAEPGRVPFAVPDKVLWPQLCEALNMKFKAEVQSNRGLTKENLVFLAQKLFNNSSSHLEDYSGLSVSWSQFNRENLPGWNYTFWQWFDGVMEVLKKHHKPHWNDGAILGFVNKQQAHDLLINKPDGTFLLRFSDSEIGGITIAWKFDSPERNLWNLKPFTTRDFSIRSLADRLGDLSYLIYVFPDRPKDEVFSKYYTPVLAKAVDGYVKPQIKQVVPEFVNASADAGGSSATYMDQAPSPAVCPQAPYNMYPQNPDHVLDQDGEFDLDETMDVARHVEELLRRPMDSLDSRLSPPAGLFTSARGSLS

What value of Ki has been reported for the following compound? `CC(=O)N1CC[C@@H]2CN(C(=O)[C@@H]3CCCN3C(=O)[C@@H](NC(=O)c3cc4cc(C(F)(F)P(=O)(O)O)ccc4s3)C(C)(C)C)C[C@@H]21` > 10 µM

What value of Ki has been reported for the following compound? CC(C)(C)[C@H](NC(=O)c1cc2cc(C(F)(F)P(=O)(O)O)ccc2s1)C(=O)N1Cc2ccccc2CC1C(=O)N1CCO[C@H](c2ccccc2)C1 (stereo partly drawn) 1 to 10 µM

What value of Ki has been reported for the following compound? `CN(Cc1ccc(Cl)cc1)C(=O)[C@@H]1CCCN1C(=O)[C@@H](NC(=O)c1cc2cc(C(F)(F)P(=O)(O)O)ccc2s1)C(C)(C)C` > 10 µM

What value of Ki has been reported for the following compound? `O=C(N[C@H](C(=O)N1CCC[C@H]1C(=O)N1CCO[C@@H](c2ccccc2)C1)C1CC1)c1cc2cc(C(F)(F)P(=O)(O)O)ccc2s1` > 10 µM

What value of Ki has been reported for the following compound? `CC(C)(C)[C@H](NC(=O)c1cc2cc(C(F)(F)P(=O)(O)O)ccc2s1)C(=O)N1CCC[C@H]1C(=O)N(Cc1ccccc1)C1CCOCC1` > 10 µM

What value of Ki has been reported for the following compound? CC(C)(C)[C@H](NC(=O)c1cc2cc(C(F)(F)P(=O)(O)O)ccc2s1)C(=O)N1Cc2ccccc2CC1C(=O)Nc1ncc(-c2ccccc2)s1 (stereo partly drawn) 0.1 to 1 µM

* * *

- targetUnderTest: STAT6 protein (Homo sapiens, UniProt P42226)
- Sequence (P42226 1-847): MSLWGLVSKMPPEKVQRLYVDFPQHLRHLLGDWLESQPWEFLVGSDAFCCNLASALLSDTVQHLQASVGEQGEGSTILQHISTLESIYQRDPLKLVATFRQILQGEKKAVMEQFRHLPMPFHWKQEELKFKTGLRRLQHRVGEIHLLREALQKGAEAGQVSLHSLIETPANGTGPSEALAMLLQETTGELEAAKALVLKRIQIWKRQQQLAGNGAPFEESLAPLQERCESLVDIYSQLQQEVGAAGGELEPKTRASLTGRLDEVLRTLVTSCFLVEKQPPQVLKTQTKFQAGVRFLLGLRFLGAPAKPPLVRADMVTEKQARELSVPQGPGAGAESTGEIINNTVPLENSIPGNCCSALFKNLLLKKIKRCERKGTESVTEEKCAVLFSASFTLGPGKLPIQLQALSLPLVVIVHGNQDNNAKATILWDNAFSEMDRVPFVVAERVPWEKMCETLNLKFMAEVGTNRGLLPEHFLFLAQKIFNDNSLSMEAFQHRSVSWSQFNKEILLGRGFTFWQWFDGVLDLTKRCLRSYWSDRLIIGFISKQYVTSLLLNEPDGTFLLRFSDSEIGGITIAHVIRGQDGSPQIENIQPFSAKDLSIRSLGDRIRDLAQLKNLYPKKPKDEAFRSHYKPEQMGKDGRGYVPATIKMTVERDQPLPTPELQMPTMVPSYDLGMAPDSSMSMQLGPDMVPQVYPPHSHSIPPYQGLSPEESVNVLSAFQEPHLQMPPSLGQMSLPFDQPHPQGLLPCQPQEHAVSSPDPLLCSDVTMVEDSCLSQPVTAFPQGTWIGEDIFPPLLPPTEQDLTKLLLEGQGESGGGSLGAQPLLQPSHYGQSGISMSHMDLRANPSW
- runDescription: Fluorescence polarization (FP) binding assay, STAT6
- conditionParameters: FP competition, 5 nM fluorescein-labeled tracer, 200 nM protein, PBS pH7.4; read-out: Binding STAT6
pKi: −log10 of the molar value.
Measured pKi, listed per entry for reference.

CC(=O)N1CC[C@H]2CC[C@@H](C(=O)N3CCc4ccccc4C3)N2C(=O)[C@@H](NC(=O)c2cc3cc(C(F)(F)P(=O)(O)O)ccc3[nH]2)C1 | < 5.00
CC(C)(C)[C@H](NC(=O)c1cc2cc(C(F)(F)P(=O)(O)O)ccc2s1)C(=O)N1Cc2ccccc2C[C@H]1C(=O)N1CCOC(c2cc(F)c(Cl)cc2Cl)C1 (stereo partly shown) | 6.00 to 7.00
CCC[C@H](NC(=O)c1cc2cc(C(F)(F)P(=O)(O)O)ccc2s1)C(=O)N1CCC[C@H]1C(=O)N1CCO[C@@H](c2ccccc2)C1 | 5.00 to 6.00
CC(C)(C)[C@H](NC(=O)c1cc2cc(C(F)(F)P(=O)(O)O)ccc2s1)C(=O)N1CCC[C@H]1C(=O)N1CCOC(c2cccc(Cl)c2)C1 (stereo partly shown) | 5.00 to 6.00
CC(C)(C)[C@H](NC(=O)c1cc2cc(C(F)(F)P(=O)(O)O)ccc2s1)C(=O)N1CCC[C@H]1C(=O)N(c1ccc(I)cc1)c1ccc(C(=O)OCc2ccccc2)cc1 | 6.00 to 7.00
CC1(c2ccc(Cl)cc2)CN(C(=O)[C@@H]2Cc3ccccc3CN2C(=O)[C@@H](NC(=O)c2cc3cc(C(F)(F)P(=O)(O)O)ccc3s2)C(C)(C)C)CCO1 (stereo partly shown) | 5.00 to 6.00
CCOC(=O)CO[C@H]1C[C@@H](C(=O)N(CCC(=O)O)c2ccc(Br)cc2)N(C(=O)[C@@H](NC(=O)c2cc3cc(C(F)(F)P(=O)(O)O)ccc3s2)C(C)(C)C)C1 | 6.00 to 7.00
C#CC[C@H](NC(=O)c1cc2cc(C(F)(F)P(=O)(O)O)ccc2s1)C(=O)N1CCC[C@H]1C(=O)N1CCO[C@H](c2ccccc2)C1 | 6.00 to 7.00
O=C(N[C@@H](CC1CCNCC1)C(=O)N1CCC[C@H]1C(=O)N1CCc2ccccc2C1)c1cc2cc(C(F)(F)P(=O)(O)O)ccc2[nH]1 | < 5.00
CC(C)(C)[C@H](NC(=O)c1cc2cc(C(F)(F)P(=O)(O)O)ccc2[nH]1)C(=O)N1CCC[C@H]1c1ncc(-c2ccccc2)[nH]1 | < 5.00

What value of pKi has been reported for the following molecule? `CC(=O)N1CC[C@H]2CC[C@@H](C(=O)N3CCCC34CCCC4)N2C(=O)[C@@H](NC(=O)c2cc3cc(C(F)(F)P(=O)(O)O)ccc3s2)C1` < 5.00

What value of pKi has been reported for the following molecule? `CN(C(=O)[C@@H]1CC[C@H]2CCC[C@H](NC(=O)c3cc4cc(C(F)(F)P(=O)(O)O)ccc4s3)C(=O)N21)c1ccc(Cl)cc1` < 5.00

Reference source: patent US20230295200A1
